IC50 values for Dual specificity protein kinase CLK1 (Homo sapiens, UniProt P49759), compiled from several publications.

// below: answered compounds
CC(C)Oc1nn(CCO)c2c1/C=C/c1n[nH]c3ccc(cc13)-c1cnn(C)c1O[C@@H](C)CN(C)[C@H]2C; 0.69 nM
CNc1cc(Nc2ccc(S(=O)(=O)N3CCOCC3)cc2OC)nc2[nH]cc(C#N)c12; 301 to 1000 nM
COc1cc(S(=O)(=O)N2CCOCC2)ccc1Nc1nc(NCC2CCCC2)c2c(C(F)(F)F)c[nH]c2n1; 301 to 1000 nM
CNc1nc(Nc2ccc(C(=O)N3CC(CO)(CO)C3)c3c2OCCO3)nc2[nH]cc(C#N)c12; < 100 nM
COc1cc(P(C)(C)=O)ccc1Nc1nc(NCC(C)C)c2c(C#N)c[nH]c2n1; 301 to 1000 nM

[in] Please give the measured IC50 for this compound: N#Cc1c[nH]c2nc(Nc3ccc(C(=O)N4CC(CO)(CO)C4)c4c3OCCO4)nc(NC3CC3)c12
[out] < 100 nM

[in] And COc1cc(S(=O)(=O)N2CCOCC2)ccc1Nc1nc(NC2CCC2)c2cc[nH]c2n1 ?
[out] 301 to 1000 nM

[in] Same question, COCCNc1nc(Nc2ccc(P3(=O)CCN(C4COC4)CC3)cc2OC)nc2[nH]cc(C#N)c12 this time
[out] < 100 nM

[in] Same lookup for CC[C@H](C)Nc1nc(Nc2ccc(P(C)(C)=O)cc2OC)nc2[nH]cc(C#N)c12 , please.
[out] 301 to 1000 nM

[in] Queued: CCNc1nc(Nc2ccc(C(=O)N3CCC(N4CCOCC4)CC3)c3c2OCO3)nc2[nH]cc(C#N)c12
[out] < 100 nM

[in] Here is the next compound: CC(C)Oc1nn(CCO)c2c1/C=C/c1n[nH]c3ccc(cc13)-c1cnn(C)c1O[C@@H](C(F)F)CN(C)C2 (single isomer, unassigned)
[out] 0.8 nM

[in] Next: CCNc1nc(Nc2ccc(P3(=O)CCN(Cc4ccc(OC)cc4OC)CC3)cn2)nc2[nH]cc(C(F)(F)F)c12
[out] < 100 nM

[in] Also Cc1nn(C)c2c1/C=C/c1n[nH]c3ccc(cc13)-c1cnn(C)c1CN(C)CCN(C)C2=O , if possible.
[out] 0.157 nM

[in] Consider next the compound CCCNc1nc(Nc2ccc(C(=O)N3CCN(C4COC4)CC3)c3c2OCCO3)nc2[nH]cc(C#N)c12 in the same way.
[out] < 100 nM

[in] For C[C@H]1CN(C)Cc2c(c(OC3CC(S(C)(=O)=O)C3)nn2C)/C=C/c2n[nH]c3ccc(cc23)-c2cnn(C)c2O1 (stereo partly drawn) then?
[out] 0.48 nM
